- Tested on: A549 NSCLC
- assayOverview: NCI tumour cell line growth inhibition, 48 h

compound | GI50
COc1cccc(N2CCN(CC(=O)N3CCN(c4nnc(-c5ccc(Cl)cc5)c(-c5ccc(Cl)cc5)n4)CC3)CC2)c1 | 38.1 µM
C[C@@]1(C(=O)O)CCC[C@]2(C)C1CC[C@@]13CC(=O)[C@@](CO)(CC[C@]12O)C3 (some centres undefined) | > 100 µM
Cc1cccc(/C=C/c2c(C(=O)/C=C/c3ccccc3)c(C)nc3ccccc23)c1 | 1.91 µM
COc1cc(/C=C\c2cc(OC)c(OC)c(OC)c2)cc(NC(=O)/C=C/c2cc(OC)c(OC)c(OC)c2)c1OC | 4.49 µM

###

Measured GI50 of individual entries
- System: MOLT-4 leukemia
- assayOverview: NCI tumour cell line growth inhibition, 48 h
Where a SMILES comes first, the peptide text is derived from it. [ ]: non-standard residue; d: D form. pGlu = O=C1CC[CH](C(=O)O)N1

compound | GI50
CCN(Cc1ccc(Cl)cc1)c1ccc(CO)c(Cl)c1 | 13.5 µM
C=C(C)C(O)CCC1(C)C=Cc2c(c(C)cc3c2[nH]c2ccccc23)O1 (configuration not stated) | 3.47 µM
C[C@]12C[C@H](CCCCCCNCCOC(=O)NCCCc3ccc(N(CCCl)CCCl)cc3)C3=C4CCC(=O)C=C4CCC3C1CC[C@@H]2O (some centres not stated) | 0.34 µM
N#Cc1ccc(OCc2nc(N)nc(N)c2-c2ccc(Cl)c(Cl)c2)cc1 | 3.7 µM
Cc1cccc(/C=C/c2c(C(=O)/C=C/c3ccccc3)c(C)nc3ccccc23)c1 | 0.508 µM
CCNC(=O)C1CCCN1C(=O)C(CCCN=C(N)N)NC(=O)C(CC(C)C)NC(=O)C(CC(C)C)NC(=O)C(Cc1ccc(O)cc1)NC(=O)C(CO)NC(=O)C(Cc1c[nH]c2ccccc12)NC(=O)C(Cc1cnc[nH]1)NC(=O)C1CCC(=O)N1 (configuration not stated) ([pGlu]HWSYLLRP-NHEt; configuration not given here) | > 100 µM
O=C1C(Cl)=C(Nc2cccc(F)c2)C(=O)N1Cc1ccc(Cl)cc1 | 0.506 µM
CN1CCC2(CC1)ONC1=NCCN12 | 23.6 µM
C/C=C(\C)C(=O)NC1=CC[C@@]2(C)C(=CCC3C2CC[C@@]2(C)C3CC[C@@H]2C(C)N(C)C)C1=O (some centres not stated) | 0.843 µM
CC[C@@H]1c2c(C#N)ncn2-c2cnc(Nc3ccc(C(=O)NC4CCN(C5CCN(CC6CC6)CC5)CC4)cc3OC)nc2N1C1CCCC1 | 0.037 µM
ClCc1cccc2c(CCl)cccc12 | 3.98 µM
C=C1C(=O)O[C@H]2[C@H]1CC/C(COC(=O)CSCSCC(=O)OC/C1=C/CC[C@@]3(C)O[C@H]3[C@H]3OC(=O)C(=C)[C@@H]3CC1)=C\CC[C@@]1(C)O[C@@H]21 | 0.505 µM
O=C(Oc1cccc(F)c1OC(=O)c1cccc(O)c1)c1cccc(O)c1 | 15.9 µM
CCCCON(OC(=O)c1ccc2ccccc2c1)C(=O)c1ccccc1 | 29.2 µM
C[C@]12CC[C@@H]3c4ccc(OC(=O)N(CCCl)CCCl)cc4CC[C@H]3[C@@H]1CC[C@@H]2O | 1.78 µM
COc1ccc(/C=C/C(=O)c2cc(OC)c(OC)c(OC)c2)cc1OCc1cn(Cc2ccc(F)cc2)nn1 | 3.97 µM
Cc1nnn[n-]1.N.N.N.N.N.[Cl-].[Co+3] | > 100 µM
